# System: PRKAA1 or PRKAA2 (rat)
# ASSAY INFO: radiometric filter-binding kinase assay
# ASSAY CONTEXT: compound 10.0 µM; accession and sequence are those of the human protein
PROPERTY LABEL: residual activity (%)

>>> data_value("COC(=O)/C=C/C(=O)OC")
106
>>> data_value("C=CC(=O)N1CCC[C@@H](n2nc(-c3ccc(Oc4ccccc4)cc3)c3c(N)ncnc32)C1")
78
>>> data_value("N#Cc1c(C2CCNCC2)cc(-c2c(O)cccc2OCC2CC2)nc1N")
50
>>> data_value("FC(F)(F)c1ccc(-c2ccc(Oc3cncc4sc(-c5nn[nH]n5)cc34)cc2)cc1")
51
>>> data_value("NC(=O)c1c(NC(=O)C2CC2)sc2c1CCCC2")
86
>>> data_value("Cc1cccc(Nc2nn(C)c3ncnc(N)c23)c1")
114
>>> data_value("Cc1ccc2c(c1)C(=O)[C@@]1(O)CCN(c3ccccc3)C1=N2")
92
>>> data_value("C[C@H]1CCCC(=O)CCC/C=C/c2cc(O)cc(O)c2C(=O)O1")
60
>>> data_value("Cc1cc(SCc2sc(-c3ccc(C(F)(F)F)cc3)nc2C)ccc1OCC(=O)O")
91
>>> data_value("COc1cc2ncn(-c3cc(OCc4ccccc4S(C)(=O)=O)c(C#N)s3)c2cc1OC")
9
>>> data_value("CCNc1nc(Nc2cc(F)c(C(=O)N3CCOCC3)cc2OC)ncc1C(F)(F)F")
56

---

# STUDY SYSTEM: PRKCA (human)
# ASSAY INFO: radiometric filter-binding kinase assay
# ASSAY CONTEXT: compound 10.0 µM
PROPERTY LABEL: residual activity (%)

>>> data_value("CCc1cncnc1N1CCN(Cc2nc3cc(C(F)(F)F)ccc3[nH]2)CC1")
62
>>> data_value("CCn1c(-c2nonc2N)nc2cncc(CNC3CCNCC3)c21")
30
>>> data_value("CN1C(=O)[C@@H](Cc2c[nH]c3ccccc23)NC1=S")
96
>>> data_value("N#Cc1c(O)c2c(-c3ccc(-c4ccccc4O)cc3)csc2[nH]c1=O")
94
>>> data_value("Oc1ccc2ccccc2c1SSc1c(O)ccc2ccccc12")
65
>>> data_value("N#Cc1c(C2CCNCC2)cc(-c2c(O)cccc2OCC2CC2)nc1N")
55
>>> data_value("Cc1ccc(=O)n(-c2ccccc2)c1")
118
>>> data_value("NC(=O)c1cc2c(-c3cccc(-c4ccccc4)c3)cnc(N)c2s1")
18
>>> data_value("NC(=O)Nc1ccc2c(c1)/C(=C/c1cc(-c3cccnc3)c[nH]1)C(=O)N2")
27
>>> data_value("Cc1cc(SCc2sc(-c3ccc(C(F)(F)F)cc3)nc2C)ccc1OCC(=O)O")
88
>>> data_value("O=S(=O)(c1ccc(F)c2nonc12)N1CCN(c2ncc(C(F)(F)F)cc2Cl)CC1")
82
>>> data_value("COc1cc(C(=O)N2CCOCC2)c(F)cc1Nc1ncc(C(F)(F)F)c(NC2CC2)n1")
101
>>> data_value("Nc1cccc2c1CN(C1CCC(=O)NC1=O)C2=O (configuration not stated)")
100
>>> data_value("CCCC(CCC)C(=O)O")
91
>>> data_value("NC(=O)c1cc(-c2ccnc(NC3CCCCC3)c2)nc(N2CCNCC2)c1")
90
>>> data_value("c1ccc2c(-c3cnn4cc(-c5ccc(N6CCNCC6)cc5)cnc34)ccnc2c1")
88
>>> data_value("Cc1ccc2c(c1)C(=O)[C@@]1(O)CCN(c3ccccc3)C1=N2")
103
>>> data_value("O=C(O)c1ccc(-c2c[nH]c3ncc(-c4ccccc4)cc23)cc1C1CCCC1")
33
>>> data_value("O=C1Nc2nc(-c3c(O)cccc3OCC3CC3)cc(C3CCCNC3)c2CO1 (configuration not stated)")
31
>>> data_value("Cc1cccc(Nc2nn(C)c3ncnc(N)c23)c1")
117
>>> data_value("C[C@H]1CCCC(=O)CCC/C=C/c2cc(O)cc(O)c2C(=O)O1")
69
>>> data_value("CC(C)C[C@H](NC(=O)CNC(=O)c1cc(Cl)ccc1Cl)B1OC(=O)CC(CC(=O)O)(C(=O)O)O1 (some centres not stated)")
113
>>> data_value("Cc1ccc(-c2ccc3c(ccc4sc5c(c43)NC[C@@H](C)NC5=O)n2)cn1")
90
>>> data_value("Cn1nc(Nc2ccc(F)cc2)c2c(N)ncnc21")
121
>>> data_value("O=C(Nc1ccccc1-c1cn2c(CN3CCNCC3)csc2n1)c1cnc2ccccc2n1")
80
>>> data_value("O=C(NOC[C@H](O)CO)c1ccc(F)c(F)c1Nc1ccc(I)cc1Cl")
108
>>> data_value("CCOC(=O)c1ccc(N2NC(=O)/C(=C/c3ccc([N+](=O)[O-])o3)C2=O)cc1")
96
>>> data_value("CNc1nc(-c2ccc3c(N)n[nH]c3c2)cc(N2C[C@@H](C(=O)NC3CCCCC3)CC[C@H]2C)n1")
96
>>> data_value("COc1ccc2c(c1)c1c3c(c4c5ccccc5n(C)c4c1n2CC(O)CN(C)C)C(=O)NC3=O (configuration not stated)")
1
>>> data_value("CCNc1nc(Nc2cc(F)c(C(=O)N3CCOCC3)cc2OC)ncc1C(F)(F)F")
97
>>> data_value("CC(C)(C#N)c1ccc(N2C(=O)OCc3cnc4ccc(-c5cnc6ccccc6c5)cc4c32)cc1")
94
>>> data_value("CC1=C(CO)C(=O)O[C@@H]([C@@H](C)[C@H]2CC[C@H]3[C@@H]4C[C@H]5O[C@]56[C@@H](O)C=CC(=O)[C@]6(C)C4CC[C@]23C)C1 (some centres not stated)")
96
>>> data_value("COc1cc2ncn(-c3cc(OCc4ccccc4S(C)(=O)=O)c(C#N)s3)c2cc1OC")
88
>>> data_value("NC(=O)c1ccc(-c2ccc(Oc3cncc4sc(-c5nn[nH]n5)cc34)cc2)cc1")
30
>>> data_value("Oc1ccc(/C=C/c2cc(O)cc(O)c2)cc1")
82
>>> data_value("Cc1nc(-c2ccc(OCC(C)C)c(C#N)c2)sc1C(=O)O")
92
>>> data_value("NS(=O)(=O)OC[C@@H]1C[C@@H](n2ccc3c(N[C@H]4CCc5ccccc54)ncnc32)C[C@@H]1O")
88
>>> data_value("O=C(O)c1cc(N=Nc2ccc(S(=O)(=O)Nc3ccccn3)cc2)ccc1O")
85
>>> data_value("FC(F)(F)c1ccc(-c2ccc(Oc3cncc4sc(-c5nn[nH]n5)cc34)cc2)cc1")
59
>>> data_value("O=c1c(O)c(-c2ccc(O)c(O)c2)oc2cc(O)c(O)c(O)c12")
80
>>> data_value("CCCCCc1ccc(/C=C/[C@H](O)[C@@H](CO)NC)cc1")
89
>>> data_value("O=C(NOCC(O)CO)c1ccc(F)c(F)c1Nc1ccc(I)cc1Cl (configuration not stated)")
86

---

# STUDY SYSTEM: PAK6 (human)
# ASSAY INFO: radiometric filter-binding kinase assay
# ASSAY CONTEXT: compound 1.0 µM
PROPERTY LABEL: residual activity

>>> data_value("CNC(=O)C1[C@H]2O[C@@](C)([C@@H]1N)n1c3ccccc3c3c4c(c5c6ccccc6n2c5c31)C(=O)NC4 (some centres undefined)")
"1%"
>>> data_value("COc1cc(O)c2c(c1)[C@H]1OC1C[C@H](O)[C@H](O)C(=O)/C=C\\C[C@H](C)OC2=O (some centres undefined)")
"95%"
>>> data_value("Oc1ccc2ccccc2c1SSc1c(O)ccc2ccccc12")
"86%"
>>> data_value("CCc1cncnc1N1CCN(Cc2nc3cc(C(F)(F)F)ccc3[nH]2)CC1")
"83%"
>>> data_value("O=C(Nc1ccccc1-c1cn2c(CN3CCNCC3)csc2n1)c1cnc2ccccc2n1")
"92%"
>>> data_value("Cc1ccc(Sc2cnc(Nc3cccc(Br)n3)s2)cc1C(=O)N1CCN(C(=O)CN)CC1")
"72%"
>>> data_value("O=c1c(O)c(-c2ccc(O)c(O)c2)oc2cc(O)c(O)c(O)c12")
"58%"
>>> data_value("COc1cc(O)c2c(c1)/C=C/C[C@H](O)[C@H](O)C(=O)/C=C\\C[C@H](C)OC2=O")
"87%"
>>> data_value("O=C1Nc2nc(-c3c(O)cccc3OCC3CC3)cc(C3CCCNC3)c2CO1 (centres undefined)")
"72%"

---

# STUDY SYSTEM: NTRK1 (human)
# ASSAY INFO: radiometric filter-binding kinase assay
# ASSAY CONTEXT: compound 1.0 µM
PROPERTY LABEL: residual activity (%)

>>> data_value("c1ccc2c(-c3cnn4cc(-c5ccc(N6CCNCC6)cc5)cnc34)ccnc2c1")
71
>>> data_value("COc1ccc(N(C(=O)Nc2c(C)cccc2C)c2cc(Nc3ccc(N4CCN(C)CC4)cc3)ncn2)c(OC)c1")
89
>>> data_value("CCCCCc1ccc(/C=C/[C@H](O)[C@@H](CO)NC)cc1")
110
>>> data_value("NCC(=O)Nc1ccc(-n2nc(C(F)(F)F)cc2-c2ccc3c(ccc4ccccc43)c2)cc1")
90
>>> data_value("C=CC(=O)N1CCC[C@@H](n2nc(-c3ccc(Oc4ccccc4)cc3)c3c(N)ncnc32)C1")
46
>>> data_value("COc1ccc(-n2ncc3cnc(Nc4cc(OC)c(OC)c(OCCCN5CCN(C)CC5)c4)nc32)cc1")
11
>>> data_value("NC(=O)c1cc2c(-c3cccc(-c4ccccc4)c3)cnc(N)c2s1")
73
>>> data_value("COc1cc(O)c2c(c1)[C@H]1OC1C[C@H](O)[C@H](O)C(=O)/C=C\\C[C@H](C)OC2=O (stereo partly specified)")
67
>>> data_value("CCn1c(-c2nonc2N)nc2cncc(CNC3CCNCC3)c21")
99
>>> data_value("CC(C)(C#N)c1ccc(N2C(=O)OCc3cnc4ccc(-c5cnc6ccccc6c5)cc4c32)cc1")
50
>>> data_value("C=C1C(=O)OC2C1CC/C(C)=C/CCC1(C)OC21 (stereo unspecified)")
106
>>> data_value("Cc1nc(-c2ccc(OCC(C)C)c(C#N)c2)sc1C(=O)O")
88
>>> data_value("O=C(Nc1ccccc1-c1cn2c(CN3CCNCC3)csc2n1)c1cnc2ccccc2n1")
47
>>> data_value("Cc1ccc(Sc2cnc(Nc3cccc(Br)n3)s2)cc1C(=O)N1CCN(C(=O)CN)CC1")
19
>>> data_value("O=C(Nc1nc2cc(C(F)(F)F)cc(NC3CC3)n2n1)c1cccnc1")
81
>>> data_value("NC(=O)c1c(NC(=O)C2CC2)sc2c1CCCC2")
90
>>> data_value("Oc1ccc2ccccc2c1SSc1c(O)ccc2ccccc12")
63
>>> data_value("O=c1c(O)c(-c2ccc(O)c(O)c2)oc2cc(O)c(O)c(O)c12")
92
>>> data_value("O=C(NCCCNc1nc(Nc2cccc(CN3CCOCC3)c2)ncc1C1CC1)C1CCC1")
47
>>> data_value("CCNc1nc(Nc2cc(F)c(C(=O)N3CCOCC3)cc2OC)ncc1C(F)(F)F")
81
>>> data_value("O=C(NOCC(O)CO)c1ccc(F)c(F)c1Nc1ccc(I)cc1Cl (stereo unspecified)")
79
